Values were extracted from patent US7001600B1.

For each of the sequences below, state its GSM-CSF release CTL clone 1 (TRP-1).
system: CTL clone 1 (TRP-1); assay: GM-CSF secretion assay: CTL clone 1 (TIL586-C1) co-incubated with peptide-pulsed target cells; type: cell-based, human; settings: 586EBV (HLA-A31+) cells pulsed with peptide at 1-g/ml for 90 min; T cells alone subtracted

Solved entries (count: 5):
record_sequence | readout_value
RDTLLGPGR [TRP194–202, synthetic TRP-2 peptide] | < 50 pg/mL
FVWLHYYSVR [TRP185–194, synthetic TRP-2 peptide] | < 50 pg/mL
MSLQRQFLR [ORF3P, control peptide derived from the alternative open reading frame of the TRP-1 gene, reference compound] | > 8000 pg/mL
GPAFVTWHR [TRP213–221, synthetic TRP-2 peptide] | < 50 pg/mL
VWLHYYSVR [TRP186–194, synthetic TRP-2 peptide] | < 50 pg/mL

Lab note: next sequence to report on.
Notebook: LLGPGRPYR [TRP197–205, 9mer antigenic peptide of TRP-2, amino acids 197–205] , GSM-CSF release CTL clone 1 (TRP-1) read as < 50 pg/mL
